Assay Explanation: gradient 5% acetonitrile 3 min, to 50% in 2 min, to 85% in 15 min, held 3 min, 100 µL/min
Conditions Used: column: Zorbax Extend-C18 2.1 x 50 mm; eluents: water / acetonitrile, 0.1% formic acid
Assay Endpoint: RP-LC retention time
Report as: number unit

{"columns": ["Compound", "RP-LC retention time"],
 "data": [
  ["COc1ccc(CC(=O)N2CCC3(CC2)NC(=O)c2ccc(Cl)cc2N3)cc1", "787 s"],
  ["O=C1NC2(CCN(C(=O)Nc3cccc(F)c3)CC2)Oc2ccccc21", "743 s"],
  ["CCn1c(=O)c(N2CCC(C(=O)NCCc3c[nH]c4ccc(C)cc34)CC2)nc2cccnc21", "984 s"],
  ["O=C(Cn1ncc2c(N3CCN(c4ccccn4)CC3)ncnc21)Nc1ccccc1Cl", "564 s"],
  ["Cc1ccc(S(=O)(=O)N2CCCC(C(=O)Nc3nnc(Cc4cccs4)o3)C2)cc1 (stereo not drawn)", "810 s"]
]}

I would be grateful if you could provide RP-LC retention time for each of the following entries.
1. Cc1ccc(-c2cc3n(n2)CCCN(C(=O)c2cc(CN4CCOCC4)on2)C3)o1
2. N#Cc1c(NC(=O)C2Cc3ccccc3C(=O)O2)sc2c1CCCC2 (stereo not drawn)

Return:
617 s
663 s

I would be grateful if you could provide RP-LC retention time for each of the following entries.
1. CCn1cc(-c2nc(C)c(C(=O)NCc3cccnc3)s2)c2cccnc21
2. CN1C(=O)C2CCCCN2c2ccc(C(=O)NCc3ccc4c(c3)OCO4)cc21 (stereo not drawn)

Return:
1: 629 s; 2: 563 s

I would be grateful if you could provide RP-LC retention time for each of the following entries.
1. O=C(Nc1ccc(F)c(Cl)c1)C1CCCN(S(=O)(=O)c2c[nH]c(C(=O)N3CCCC3)c2)C1 (stereo not drawn)
2. Cc1cccc(NC(=O)CN2C(=O)C3CCCN3C(=O)c3ccc(F)cc32)c1C (stereo not drawn)
3. COc1ccc(C)cc1NC(=O)Cn1nc2c(Oc3cc(C)cc(C)c3)nccn2c1=O
4. CCOCCCNC(=O)CN1C(=O)C2CCCCN2c2ccc(S(=O)(=O)N3CCCC3)cc21 (stereo not drawn)
5. COc1ccc(N2CCN(C(=O)CC3CCN(C(=O)c4[nH]c(C)cc4C)CC3)CC2)cc1
6. Cc1cc(NC(=O)c2csc(-c3cn(C)c4ncccc34)n2)ccc1F
7. CCOc1ccc(CC(=O)N2CCCN(c3cc(-c4ccc(Br)cc4)[nH]n3)CC2)cc1OCC

Return:
["876 s", "731 s", "1050 s", "819 s", "739 s", "1050 s", "842 s"]

I would be grateful if you could provide RP-LC retention time for each of the following entries.
1. CCOc1ccccc1-c1noc(Cn2c(=O)n(-c3cccc(C)c3)c(=O)c3sccc32)n1
2. CSc1cccc(NC(=O)CN2CCC3(CC2)N=C(c2cccc(F)c2)C(=O)N3)c1

Return:
1: 1010 s; 2: 685 s

###

Assay Explanation: gradient 5% acetonitrile 3 min, to 50% in 2 min, to 85% in 15 min, held 3 min, 100 µL/min
Conditions Used: column: Zorbax Extend-C18 2.1 x 50 mm; eluents: water / acetonitrile, 0.1% formic acid
Provide the reported RP-LC retention time of each item.
Give bare numbers, in s.

Completed entries (count: 5):
{"columns": ["Molecule", "Reading Unit", "RP-LC retention time"],
 "data": [
  ["CC(C)NCCCn1c(Sc2cc3c(cc2I)OCO3)nc2c(N)ncnc21", "s", 592],
  ["CCOC(=O)c1[nH]c(C)c(C(=O)C(C)N(CC(C)C)C(=O)c2ccc(Cl)cc2)c1C (stereo not given)", "s", 1080],
  ["COc1cccc(Cn2c(=O)c3sccc3n(Cc3nc(-c4ccc(C)c(C)c4)no3)c2=O)c1", "s", 1200],
  ["Cc1nnc2cc(N3CCN(Cc4csc5c4CCCC5)CC3)cnn12", "s", 589],
  ["CC(C)Cn1nc(CNC(=O)c2cnccn2)c2ccccc21", "s", 826]
]}

I would be grateful if you could provide RP-LC retention time for each of the following entries.
1. CC(=O)c1ccc(Nc2c(C(=O)N3CCOCC3)cnc3nc(C)ccc23)cc1
2. Cc1ccc(S(=O)(=O)N2CCC(CN3CCCCCC3)CC2)cc1F
3. Cc1nn(C)c2c(=O)n(CC(=O)N3CCN(c4ccccn4)CC3)ccc12
4. Cc1ccc(N2CN(CC(=O)Nc3cccc(Cl)c3)S(=O)(=O)c3cccnc32)cc1
5. CC(C)(C)OC(=O)N1CCN(c2ncc(S(=O)(=O)c3ccc(Cl)cc3)c(N)n2)CC1

Return:
1. 568
2. 686
3. 558
4. 1030
5. 1060

I would be grateful if you could provide RP-LC retention time for each of the following entries.
1. COc1cc(OC)cc(-c2nnc(Cc3nc(-c4ccc5c(c4)OCO5)no3)o2)c1
2. CCN1/C(=C/C(C)=O)Sc2ccc(OC)cc21
3. CCOC(=O)N1CCC(NC(=O)c2cn(-c3cccc(Cl)c3)nn2)CC1

Return:
1. 978
2. 845
3. 795

I would be grateful if you could provide RP-LC retention time for each of the following entries.
1. Cc1ccc(C)c(CNC(=O)c2cn3c(n2)CCCC3)c1
2. CCOC(=O)C1CCN(c2nnc(-c3nnc(CC)o3)c3ccccc23)CC1
3. CC(C)NC(=O)c1cn(-c2ccc(-c3nc(C(C)(C)C)no3)cn2)cn1
4. CCc1csc(-c2ccc(N3CCN(C(=O)c4ccsc4)CC3)nc2)n1

Return:
622
977
970
853

I would be grateful if you could provide RP-LC retention time for each of the following entries.
1. Cc1nc(C2CCOCC2)n(C2CCN(S(=O)(=O)c3cccnc3)C2)n1 (stereo not given)
2. COCCCNC(=O)CN1CC2=C(C1=O)C(c1ccccc1Cl)NC(=O)N2C (stereo not given)
3. Cc1nc(-c2ccc(-c3noc(COc4ccc(Cl)cc4)n3)cc2)cs1

Return:
1: 622; 2: 570; 3: 1280

###

Assay Explanation: gradient 5% acetonitrile 3 min, to 50% in 2 min, to 85% in 15 min, held 3 min, 100 µL/min
Conditions Used: column: Zorbax Extend-C18 2.1 x 50 mm; eluents: water / acetonitrile, 0.1% formic acid
Parameter threshold = 900 s. Response is True when RP-LC retention time meets or exceeds it, else False.

Enquiry: Quick check, RP-LC retention time >= 900 s? CCc1nc(-c2csc(S(=O)(=O)N3CCCC(C(=O)Nc4ccc(C)cc4Cl)C3)c2)no1 (stereo not given)
Return: True

Enquiry: Quick check, RP-LC retention time >= 900 s? "Cc1nnc2c(=O)n(CC(=O)NCc3cccc(Cl)c3)c3cccnc3n12"
Return: False

Enquiry: Quick check, RP-LC retention time >= 900 s? "COc1ccc2[nH]cc(CCNC(=O)Cn3nc(C)c4nn(-c5ccccc5)c(C)c4c3=O)c2c1"
Return: False

###

Provide the reported RP-LC retention time of each item.
Assay Explanation: gradient 5% acetonitrile 3 min, to 50% in 2 min, to 85% in 15 min, held 3 min, 100 µL/min
Conditions Used: column: Zorbax Extend-C18 2.1 x 50 mm; eluents: water / acetonitrile, 0.1% formic acid
Numbers only, in s.

Completed entries (count: 5):
{"columns": ["Compound", "Assay Endpoint", "Reading Unit", "Test Value"],
 "data": [
  ["CC1CCN(c2cnn(CC(=O)Nc3cccc(C(C)C)c3)c(=O)c2Cl)CC1", "RP-LC retention time", "s", 1100],
  ["CC(=O)Nc1ccc(CCc2nc3ccc(C(=O)NCC4CCCO4)cc3[nH]2)cc1 (centres undefined)", "RP-LC retention time", "s", 562],
  ["CC1CCc2c(sc3nc(CCC(=O)N4CCC(C(N)=O)CC4)[nH]c(=O)c23)C1 (centres undefined)", "RP-LC retention time", "s", 697],
  ["O=C(Cc1ccc(F)cc1)N1CCCCC1c1nncn1CC1CC1 (centres undefined)", "RP-LC retention time", "s", 735],
  ["O=C(NCc1ccc(F)cc1)c1cc(-c2ccc(F)cc2)ns1", "RP-LC retention time", "s", 1030]
]}

I would be grateful if you could provide RP-LC retention time for each of the following entries.
1. Cn1nc2ccc(S(=O)(=O)N3CCSCC3)cn2c1=O
2. Cc1ccc(N2CC(c3noc(-c4cccc(Cl)c4)n3)CC2=O)cc1 (centres undefined)
3. Cc1cc([N+](=O)[O-])ccc1NC(=O)c1ccc(-n2cnnn2)cc1
4. CCNC(=O)C1CCN(C(=O)Nc2ccc(NC(=O)Nc3ccc(C)cc3C)cc2)CC1
5. CCN1C(=O)c2ccccc2Oc2ccc(C(=O)NCc3cccs3)cc21

Return:
[687, 1090, 803, 729, 911]
